- measured.target: T1, extracellular domain of FGFR2c protein (Example 1) (UniProt P21802 22-377)
- T1 construct: extracellular domain
- T1 sequence (P21802 22-377): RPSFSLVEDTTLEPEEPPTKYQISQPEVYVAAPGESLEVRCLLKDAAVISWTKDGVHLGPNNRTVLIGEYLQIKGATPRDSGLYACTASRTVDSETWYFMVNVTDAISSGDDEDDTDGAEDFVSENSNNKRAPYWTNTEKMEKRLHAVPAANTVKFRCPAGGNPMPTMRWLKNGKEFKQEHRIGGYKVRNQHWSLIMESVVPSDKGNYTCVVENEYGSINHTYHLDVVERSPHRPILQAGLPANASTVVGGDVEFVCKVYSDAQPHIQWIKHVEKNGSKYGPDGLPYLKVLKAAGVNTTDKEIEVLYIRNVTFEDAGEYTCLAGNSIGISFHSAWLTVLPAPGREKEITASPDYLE
- assay.protocol: phage ELISA
assay.readout: OD (450 nm) value
// print number alone

Kindly note the recorded OD (450 nm) value for 3E2 scFv displayed on phage (scFv) scFv: EIQLQQSGAELVKPGASVKMSCKASGYTFSFYNMHWVKRTPGQGLEWIGLIYPDNGDTSYNQKFKGKATLTADTSSSTAYMQLSSLTSEDSAVYYCARGGLDYWGQGTSLTVSSGGGGSGGGGSGGGGSNIVMTQSQKFMSTSVGDRVSVTCKASQNVGTNVAWYQQKPGQSPKALIYSASYRYTGVPDRFTGSGSGTDFTFTISSVQAEDLAVYYCQQHYSTPYTFGGGTKLEIK , which is 0.036
